Target: PDGFRB(DKIN) (PDGFR-β) (Homo sapiens)
Construct: PDGFRB(DKIN)
Experiment: Phage-display competitive binding assay, PDGFRB(DKIN)
Details: T7 phage displaying human PDGFR-β, DKIN construct; read-out: Binding Assay: PDGFRB(DKIN)
metricName: Kd

Please review the entries below; each comes with its answer.
The recorded Kd for entry `CC(C)(C)c1cc(NC(=O)Nc2ccc([N+](=O)[O-])cc2)no1` equals 0.1 to 1 µM

The recorded Kd for entry `CC(C)(C)c1cc(NC(=O)Nc2ccc(Nc3ncnc4[nH]cnc34)cc2)no1` equals < 0.1 µM

The recorded Kd for entry `COc1cc2ncnc(Nc3ccc(NC(=O)Nc4cc(C(C)(C)C)on4)cc3)c2cc1OC` equals < 0.1 µM

The recorded Kd for entry `CC(C)(C)c1cc(NC(=O)Nc2ccc(NC(=O)c3cccc(OC(F)F)c3)cc2)no1` equals 0.1 to 1 µM

The recorded Kd for entry `COc1ccc(-c2cc(C(=O)Nc3ccc(NC(=O)Nc4cc(C(C)(C)C)on4)cc3)c(C)o2)cc1` equals 1 to 10 µM

The recorded Kd for entry `CC(C)(C)c1cc(NC(=O)Nc2ccc(NC(=O)c3csnn3)cc2)no1` equals 0.1 to 1 µM

The recorded Kd for entry `Cn1nc(-c2ccccc2)c2cc(C(=O)Nc3ccc(NC(=O)Nc4cc(C(C)(C)C)[nH]n4)cc3)[nH]c21` equals 0.1 to 1 µM

The recorded Kd for entry `COc1cccc(CNC(=O)Nc2cc(C(C)(C)C)on2)c1` equals 0.1 to 1 µM

Okay, next one:
The recorded Kd for entry `Cc1ccc(NC(=O)c2ccc(NC(=O)Nc3cc(C(C)(C)C)on3)cc2)cc1` equals < 0.1 µM
